System: OVCAR-4 ovarian
Experiment: NCI tumour cell line growth inhibition, 48 h
Each item that follows carries a reported TGI.
endpoint name: TGI

[[record]]
compound = "NCC(Cc1ccccc1)P(=O)(O)O (configuration not stated)"
result = "> 100 µM"

[[record]]
compound = "O=CC(O)C(O)C(OC1OC(CO)C(O)C(O)C1O)C(O)CO (configuration not stated) (tested in a mixture with another compound)"
result = "> 100 µM"

[[record]]
compound = "C=CC1(O)CCCC=C1COCc1ccccc1 (configuration not stated)"
result = "> 100 µM"

[[record]]
compound = "O=C(/C=C\\c1ccc(/C=C/C(=O)Nc2cccc(C3=NCCCN3)c2)cc1)Nc1cccc(C2=NCCCN2)c1"
result = "> 100 µM"

[[record]]
compound = "FC(F)(F)c1cnc(N/N=C(/c2ccccc2)c2ccccn2)c(Cl)c1"
result = "24.8 µM"

[[record]]
compound = "O=S(=O)(O)c1ccc2c(N=Nc3c(O)ccc4ccccc34)cccc2c1"
result = "> 100 µM"

[[record]]
compound = "O=C1c2ccoc2C(=O)c2oc(=O)ccc21"
result = "13.5 µM"

[[record]]
compound = "CCN(CC)C(=S)SSCCO"
result = "27.9 µM"

[[record]]
compound = "c1ccc2c(c1)[O][Sn][O]2"
result = "> 150 µg/mL"

[[record]]
compound = "CCOC(=O)C1=C(C)N(Cc2ccc(Cl)cc2Cl)[C@]2(C#N)C(O)=C(Cl)C(Cl)=C(O)[C@]12C#N"
result = "> 100 µM"

[[record]]
compound = "N/C(=N\\N=C/c1cc([N+](=O)[O-])cc([N+](=O)[O-])c1O)NO"
result = "> 100 µM"

[[record]]
compound = "Cc1cc(OC(=O)Nc2ccc(Cl)cc2)ccc1C(=S)Nc1ccccc1"
result = "> 100 µM"

[[record]]
compound = "O=C(/C=C/c1ccc(Cl)cc1)c1ccc(Cl)s1"
result = "> 100 µM"

[[record]]
compound = "CCC1=C(c2ccc(OC)cc2)CC[C@]2(CCNC2=O)[C@@H]1C"
result = "69.5 µM"

[[record]]
compound = "O=C(O)C1=C(C(=O)O)Oc2ccccc2O1"
result = "> 100 µM"

[[record]]
compound = "C/C(CC(=O)Nc1cccc(Cl)c1C)=N\\N=C(N)N"
result = "> 100 µM"

[[record]]
compound = "NC(N)=N/N=C/c1c(-c2ccc(Cl)cc2)nc2sc(Cl)cn12"
result = "2.18 µM"

[[record]]
compound = "O=C1CC(=O)NC(=NN2C(=O)/C(=C/c3ccc(Cl)cc3)N=C2c2ccccc2)N1"
result = "22.5 µM"

[[record]]
compound = "COC(=O)c1cc2ccccc2c2nc3ccccc3c(Cl)c12"
result = "> 100 µM"

[[record]]
compound = "N#C[C@H](C(=O)c1ccccc1F)c1nc2ccccc2[nH]1"
result = "> 100 µM"

[[record]]
compound = "CC1CCN(c2cc(-c3cc4ccccc4o3)oc(=O)c2C#N)CC1"
result = "> 100 µM"

[[record]]
compound = "CCCCCC(/C=C/[C@@H]1[C@@H](C(O)CCCCCC(=O)OC)C(=O)C[C@H]1O[Si](C)(C)C(C)(C)C)OCOCCOC (some centres not stated)"
result = "40.9 µM"

